# Tested on: LXRa:RXRa (NR concentration 270 nM, RXRa partner concentration 90 nM)
# EXPERIMENTAL DETAILS: PBM binding z-score (relative to random genomic background probes); higher = stronger binding; sequences stand for … in GC…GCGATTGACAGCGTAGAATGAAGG
QUANTITY MEASURED: PBM binding z-score

[[record]]
sequence_string = "TCATATAGGTAAATGCTAGGTAAAAGTCCGATCT"
tested_on = "LXRa:RXRa (NR concentration 270 nM, RXRa partner concentration 90 nM)"
quantity_measured = "PBM binding z-score"
measurement = 1.02

[[record]]
sequence_string = "TGGCCTAGGTCATTGGGCCAGTATAGTACGCATC"
tested_on = "LXRa:RXRa (NR concentration 270 nM, RXRa partner concentration 90 nM)"
quantity_measured = "PBM binding z-score"
measurement = 2.98

[[record]]
sequence_string = "GCGACTGGGGCAACAGCAGGTTACCATAACTTAA"
tested_on = "LXRa:RXRa (NR concentration 270 nM, RXRa partner concentration 90 nM)"
quantity_measured = "PBM binding z-score"
measurement = 1.28

[[record]]
sequence_string = "TCTGCTAGGTCAGTTTGTCAGCTAACGAGCTGCC"
tested_on = "LXRa:RXRa (NR concentration 270 nM, RXRa partner concentration 90 nM)"
quantity_measured = "PBM binding z-score"
measurement = 0.567

[[record]]
sequence_string = "CCTAGCAGGCCAGGGTCTCTCAAGCATTTCGCTT"
tested_on = "LXRa:RXRa (NR concentration 270 nM, RXRa partner concentration 90 nM)"
quantity_measured = "PBM binding z-score"
measurement = -0.742

[[record]]
sequence_string = "ATCTCTAGGTAAAGATAGTTCACTGAATGCAAAT"
tested_on = "LXRa:RXRa (NR concentration 270 nM, RXRa partner concentration 90 nM)"
quantity_measured = "PBM binding z-score"
measurement = 4.91

[[record]]
sequence_string = "CCGAGGAGGTTATGGGGCATTCAGGCAACGGTGA"
tested_on = "LXRa:RXRa (NR concentration 270 nM, RXRa partner concentration 90 nM)"
quantity_measured = "PBM binding z-score"
measurement = 1.44

[[record]]
sequence_string = "TCTGCTAGGTCAGTTGCTCAGCTAACGAGCTGCC"
tested_on = "LXRa:RXRa (NR concentration 270 nM, RXRa partner concentration 90 nM)"
quantity_measured = "PBM binding z-score"
measurement = 0.241

[[record]]
sequence_string = "TCTGCTAGGTCAGCTGGTCAGCTAACGAGCTGCC"
tested_on = "LXRa:RXRa (NR concentration 270 nM, RXRa partner concentration 90 nM)"
quantity_measured = "PBM binding z-score"
measurement = 0.826

[[record]]
sequence_string = "CTCGAAAGGTCGGTTGCGGTGAGTATACGGATAA"
tested_on = "LXRa:RXRa (NR concentration 270 nM, RXRa partner concentration 90 nM)"
quantity_measured = "PBM binding z-score"
measurement = 1.5

[[record]]
sequence_string = "CAAACTAGGTCAAGATGTCAAAGTCCGCTTCCCG"
tested_on = "LXRa:RXRa (NR concentration 270 nM, RXRa partner concentration 90 nM)"
quantity_measured = "PBM binding z-score"
measurement = 3.18

[[record]]
sequence_string = "TTGCCAAGGTGAAGGTCGTTGATCCCTCTGTAGA"
tested_on = "LXRa:RXRa (NR concentration 270 nM, RXRa partner concentration 90 nM)"
quantity_measured = "PBM binding z-score"
measurement = 1.79

[[record]]
sequence_string = "TCGCGTAGGTTAGGGGCATTCAGAATGGCGTCGA"
tested_on = "LXRa:RXRa (NR concentration 270 nM, RXRa partner concentration 90 nM)"
quantity_measured = "PBM binding z-score"
measurement = 0.41

[[record]]
sequence_string = "TCTGCTAGGTCAACGATGATCAGCTAATCTGCTA"
tested_on = "LXRa:RXRa (NR concentration 270 nM, RXRa partner concentration 90 nM)"
quantity_measured = "PBM binding z-score"
measurement = 1.96

[[record]]
sequence_string = "CCTACTGGGCCATTCATAGGTCATTGATCATATG"
tested_on = "LXRa:RXRa (NR concentration 270 nM, RXRa partner concentration 90 nM)"
quantity_measured = "PBM binding z-score"
measurement = 2.17

[[record]]
sequence_string = "CAAACTAGGTCACCTGAAGGTCAAAGTCCGCATG"
tested_on = "LXRa:RXRa (NR concentration 270 nM, RXRa partner concentration 90 nM)"
quantity_measured = "PBM binding z-score"
measurement = 5.89

[[record]]
sequence_string = "AGTACGAGGGCACGCTGAGTTGATAGCAGAGTAG"
tested_on = "LXRa:RXRa (NR concentration 270 nM, RXRa partner concentration 90 nM)"
quantity_measured = "PBM binding z-score"
measurement = 0.941

[[record]]
sequence_string = "CCTCGGAGGACAGAAGGGCAGAGCTGTCCGCTTT"
tested_on = "LXRa:RXRa (NR concentration 270 nM, RXRa partner concentration 90 nM)"
quantity_measured = "PBM binding z-score"
measurement = -0.658

[[record]]
sequence_string = "TAGCCTACGTCAGATCGGGCCAGTATACGCTATA"
tested_on = "LXRa:RXRa (NR concentration 270 nM, RXRa partner concentration 90 nM)"
quantity_measured = "PBM binding z-score"
measurement = -0.971

[[record]]
sequence_string = "GCATATAGGTAATGCAAGGTGAAAGTCCGATTGT"
tested_on = "LXRa:RXRa (NR concentration 270 nM, RXRa partner concentration 90 nM)"
quantity_measured = "PBM binding z-score"
measurement = 1.83

[[record]]
sequence_string = "GCCTGTAGATCAAGGTTAAGAAAGACTAAGCTAA"
tested_on = "LXRa:RXRa (NR concentration 270 nM, RXRa partner concentration 90 nM)"
quantity_measured = "PBM binding z-score"
measurement = 0.697

[[record]]
sequence_string = "CCGAGTGGGGCAGAAAGGTTACCATACCATCCGG"
tested_on = "LXRa:RXRa (NR concentration 270 nM, RXRa partner concentration 90 nM)"
quantity_measured = "PBM binding z-score"
measurement = 0.723

[[record]]
sequence_string = "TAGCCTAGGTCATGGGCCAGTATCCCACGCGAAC"
tested_on = "LXRa:RXRa (NR concentration 270 nM, RXRa partner concentration 90 nM)"
quantity_measured = "PBM binding z-score"
measurement = 3.17

[[record]]
sequence_string = "AATACAGGGTCCCTAGGCCAGAGTAGGTACGAAT"
tested_on = "LXRa:RXRa (NR concentration 270 nM, RXRa partner concentration 90 nM)"
quantity_measured = "PBM binding z-score"
measurement = -0.334

[[record]]
sequence_string = "ATACCAAGGTGATCTTGAGGTCGTTGATACTAAC"
tested_on = "LXRa:RXRa (NR concentration 270 nM, RXRa partner concentration 90 nM)"
quantity_measured = "PBM binding z-score"
measurement = 2.49

[[record]]
sequence_string = "ATCTCTAGGTAAAAGTTCAGTCAATCCCGAGGAT"
tested_on = "LXRa:RXRa (NR concentration 270 nM, RXRa partner concentration 90 nM)"
quantity_measured = "PBM binding z-score"
measurement = 1.98


----------
# System: PPARg:RXRa 270nM:90nM, anti-RXR (NR concentration 270 nM, RXRa partner concentration 90 nM)
# EXPERIMENTAL DETAILS: PBM binding z-score (relative to random genomic background probes); higher = stronger binding; sequences stand for … in GC…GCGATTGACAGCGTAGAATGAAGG
QUANTITY MEASURED: PBM binding z-score

[[record]]
sequence_string = "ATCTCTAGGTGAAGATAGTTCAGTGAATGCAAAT"
measurement = 1.55

[[record]]
sequence_string = "ACTAGCAGGCCAAGGGTCACTTAAGATTAGTCCG"
measurement = 7.44

[[record]]
sequence_string = "TGTCAAAGTTCAAAGGCAACGTAAGTATCCACAC"
measurement = 7.39

[[record]]
sequence_string = "CCTTACGGGTCACTCCAGGTTGTAGCATCGGAGT"
measurement = 3.54

[[record]]
sequence_string = "CCGACTGAGGCAAAGGTTACCATACTCAGTACGA"
measurement = 6.76

[[record]]
sequence_string = "TCTTGTGGATCAGCAGGTTAAGAAAGCTGGCCAA"
measurement = 1.27

[[record]]
sequence_string = "AGAACGAGGGCACGCTGAGTTGATGGCAGAGTAG"
measurement = 1.63

[[record]]
sequence_string = "GCACCAAGGTGAATAGGTCGTTGATGAGTAGGCG"
measurement = 1.62

[[record]]
sequence_string = "AGTCAAAGTTCACTAGGGAACGTAAGATTCAGCT"
measurement = 6.13

[[record]]
sequence_string = "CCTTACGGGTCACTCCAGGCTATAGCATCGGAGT"
measurement = 3.31

[[record]]
sequence_string = "TCTATTAGTAGATTAGGGCAACCGAAACAGCGGA"
measurement = 1.64

[[record]]
sequence_string = "GCTGCTAGGTCAGATTGGTCAGCTAACGGGTACG"
measurement = 0.718

